- assayMethodText: lysozyme-GFP induction in HOXA9-ER cells – HOXA9-ER marrow cells, GFP flow, set 1, SAR follow-up (AID 743181)
- statedConditions: HOXA9-ER marrow cells, lysozyme-GFP differentiation, flow; at 10 µM (top of the series)
quantityKind: GFP+ cells, differentiation (%)
I only need the number, in %, no unit after it.

| lineNotation | GFP+ cells, differentiation / % |
| --- | --- |
| O=C(CNC(=O)c1ccc(C(F)(F)F)cc1)N[C@@H]1CCCc2ccccc21 | 1 |
| O=C(CCCNC(=O)c1ccc(C(F)(F)F)cc1)N[C@@H]1CCCc2ccccc21 | 1 |
| C[C@@H](NC(=O)CCNC(=O)c1ccc(Cl)cc1)c1ccccc1 | 1 |
| O=C(CCNC(=O)c1ccccc1)N[C@@H]1CCCc2ccccc21 | 3 |

Request: Need GFP+ cells, differentiation of "O=C(CCNC(=O)c1ccc(F)cc1)N[C@@H]1CCCc2ccccc21" , thanks.
Result: 12

Request: Could you do the same for "N#Cc1ccc(C(=O)NCCC(=O)N[C@@H]2CCCc3ccccc32)cc1" , please?
Result: 16
